assay: chemical genetic growth profiling, strain panel (AID 1159580);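 note: tested at 20 µM; growth read once vehicle control cultures reached saturation at 30 °C; 1 = growth at the plate median or of vehicle wells; lower values mean less growth of the strain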; conditions: S. cerevisiae deletion strains, growth OD, locus YNL153C, strain GIM3, hits give low values
Hit rate of the full screen: of about 5,500 compounds, about 2,000 (36%) were called active. Another 18% or so got no clear call; they are omitted. The list shows a part of the results.
Assign labels as follows, please: yes (1) for normalized growth below 1; no (0) for normalized growth equal to or exceeding 1.

Below, 6 compounds whose answers are already recorded.
compound=CC(=O)Nc1ccc(S(=O)(=O)Nc2c(C)n(C)n(-c3ccccc3)c2=O)cc1 assigned_label="no (0)"
compound=Cc1cc(=O)n(-c2ccc([N+](=O)[O-])cc2)[nH]1 assigned_label="yes (1)"
compound=O=[N+]([O-])c1ccc(N2CCOCC2)cc1 assigned_label="no (0)"
compound=CNNC assigned_label="no (0)"
compound="Clc1cncc(Cl)c1N/N=C\\C1CC2C=CC1C2 (stereo not given)" assigned_label="yes (1)"
compound=C=C1c2c(Cl)ccc(O)c2C(O)=C2C(=O)[C@]3(O)C(O)=C(C(N)=O)C(=O)[C@@H](N(C)C)[C@@H]3[C@@H](O)[C@H]12 assigned_label="yes (1)"

# input Threshold test, normalized growth < 1: "CC(=O)Oc1ccc(O)cc1"
# output yes (1)

# input Threshold test, normalized growth < 1: CC(C)CC1NC(=O)CNC1=O (stereo not given)
# output yes (1)

# input Threshold test, normalized growth < 1: "Cc1onc(-c2c(Cl)cccc2Cl)c1NC(=O)O/N=C\c1ccc(N(C)C)cc1"
# output yes (1)

====

test: chemical genetic growth profiling, strain panel (AID 1159580);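 note: tested at 20 µM; growth read once vehicle control cultures reached saturation at 30 °C; 1 = growth at the plate median or of vehicle wells; lower values mean less growth of the strain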; settings: S. cerevisiae deletion strains, growth OD, locus YMR223W, strain ubp8, hits give low values
Among all 5,500 compounds or so, about 2,000 (36%) were called active. Inconclusive results (about 18%) are left out. The list shows a part of the results.
normalized growth: recorded values

Some solved cases for reference:
compound=COc1ccc2cc(CCC(C)=O)ccc2c1 recorded_measurement="0.895 (active)"
compound="CC12CCC(=O)C=C1CCC1C2[C@@H](O)CC2(C)C1CC[C@]2(O)C(=O)COP(=O)(O)O (some centres not stated)" recorded_measurement="0.993 (inactive)"
compound=Cc1cc(=O)oc2cc(O)c(O)cc12 recorded_measurement="0.951 (inactive)"

# input Supply recorded normalized growth for CC(Cc1cccc(C(F)(F)F)c1)NCCOC(=O)c1ccccc1 (configuration not stated) here.
# output 0.947 (inactive)

# input Supply recorded normalized growth for "COC(=O)/C(=C1\OC(=O)C(c2ccccc2)=C1O)c1ccccc1" here.
# output 0.98 (inactive)

====

assay: chemical genetic growth profiling, strain panel (AID 1159580);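 note: tested at 20 µM; growth read once vehicle control cultures reached saturation at 30 °C; 1 = growth at the plate median or of vehicle wells; lower values mean less growth of the strain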; details: S. cerevisiae deletion strains, growth OD, locus YNL175C, strain NOP13, hits give low values
The whole screen tested about 5,500 compounds, of which about 2,000 (36%) were called active. Not shown: some 18% with an inconclusive outcome. Some of the results follow.
Recorded Endpoint: normalized growth
Please give only the number in your answer, with no unit.

Some solved cases for reference:
molecule=CC1(C)CCC=[N+]1[O-] recorded_endpoint="normalized growth" recorded_measurement=0.993
molecule=O=C1N(c2ccccc2)c2ccccc2C1(Cc1ccncc1)Cc1ccncc1 recorded_endpoint="normalized growth" recorded_measurement=0.996
molecule=C#CCN[C@H](C)Cc1ccccc1 recorded_endpoint="normalized growth" recorded_measurement=0.997
molecule=CC(=O)N[C@@H](Cc1c[nH]c2ccccc12)C(=O)OCc1cc(C(F)(F)F)cc(C(F)(F)F)c1 recorded_endpoint="normalized growth" recorded_measurement=0.985
molecule="CC(N=C(NC#N)Nc1ccncc1)C(C)(C)C (configuration not stated)" recorded_endpoint="normalized growth" recorded_measurement=1
molecule="CCN1CCCC1CNC(=O)c1cc(S(N)(=O)=O)ccc1OC (configuration not stated)" recorded_endpoint="normalized growth" recorded_measurement=0.978

# input Supply recorded normalized growth for COc1cc(CC(C)N)c(OC)cc1I (configuration not stated) here.
# output 0.995

# input Supply recorded normalized growth for "Cc1scc2c1N(C(=O)CN1CCN(C)CC1)c1ccccc1NC2=O" here.
# output 1.02
